Study Target: 5'-nucleotidase (Rattus norvegicus, UniProt P21588)
Sequence (P21588 whole entry): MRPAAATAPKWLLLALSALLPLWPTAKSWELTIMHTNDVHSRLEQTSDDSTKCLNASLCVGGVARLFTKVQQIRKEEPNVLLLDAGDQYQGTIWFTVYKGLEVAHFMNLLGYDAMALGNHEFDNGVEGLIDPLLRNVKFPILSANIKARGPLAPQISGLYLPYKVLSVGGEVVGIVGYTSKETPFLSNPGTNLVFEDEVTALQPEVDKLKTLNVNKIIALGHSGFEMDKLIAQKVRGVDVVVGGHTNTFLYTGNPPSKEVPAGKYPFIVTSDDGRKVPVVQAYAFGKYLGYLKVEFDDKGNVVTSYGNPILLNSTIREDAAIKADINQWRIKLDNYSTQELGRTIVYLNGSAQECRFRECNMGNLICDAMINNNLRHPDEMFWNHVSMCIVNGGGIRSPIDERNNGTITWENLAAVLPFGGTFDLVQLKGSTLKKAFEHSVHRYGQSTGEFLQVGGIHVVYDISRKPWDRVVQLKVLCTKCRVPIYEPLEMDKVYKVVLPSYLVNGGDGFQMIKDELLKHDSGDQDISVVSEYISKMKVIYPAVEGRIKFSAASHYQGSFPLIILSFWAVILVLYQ
Protocol Text: Inhibition of purified recombinant soluble rat CD73 expressed in Sf9 cells [3H]AMP as substrate incubated for 25 mins by scintillation counting method
Measured Parameter: Ki (nM)

Example entries and their recorded answers appear below.
Nc1nc(Cl)c2ncn([C@@H]3O[C@H](COP(=O)(O)CP(=O)(O)O)[C@@H](O)[C@H]3O)c2n1: 268
Nc1nc(Cl)nc2c1ncn2[C@@H]1O[C@H](COP(=O)(O)CP(=O)(O)O)[C@@H](O)[C@H]1O: 18.6

I. Nc1nc(SCCC2CCCCC2)nc2c1ncn2[C@@H]1O[C@H](COP(=O)(O)CP(=O)(O)O)[C@@H](O)[C@H]1O
II. Nc1nc(N2CCNCC2)nc2c1ncn2[C@@H]1O[C@H](COP(=O)(O)CP(=O)(O)O)[C@@H](O)[C@H]1O
III. Nc1nc(=O)[nH]c2c1ncn2[C@@H]1O[C@H](COP(=O)(O)CP(=O)(O)O)[C@@H](O)[C@H]1O
# input Order the entries by their reported Ki, beginning at the minimum. Lab note: record answer as labels in requested order.
# output I, III, II

* * *

Study Target: P2Y purinoceptor 12 (Homo sapiens)
Protocol Text: Activation of recombinant human P2Y12 receptor expressed in CHOK1 cells assessed as stimulation of beta-arrestin recruitment at 10 uM incubated for 90 mins by luminescence based assay
Calls of active or inactive are those of the source. The calls are words filed in the database; no cut-off is given here.
Measured Parameter: Activity

Example compounds with recorded Activity:
Nc1nc(Cl)c2ncn([C@@H]3O[C@H](COP(=O)(O)CP(=O)(O)O)[C@@H](O)[C@H]3O)c2n1: inactive
Nc1nc(Cl)nc2c1ncn2[C@@H]1O[C@H](COP(=O)(O)CP(=O)(O)O)[C@@H](O)[C@H]1O: inactive
Nc1ncnc2c1ncn2[C@@H]1O[C@H](COP(=O)(O)OP(=O)(O)O)[C@@H](O)[C@H]1O: Active
Nc1ncnc2c1ncn2[C@@H]1O[C@H](COP(=O)(O)CP(=O)(O)O)[C@@H](O)[C@H]1O: Active

# evaluate next
Quick note, Activity for Nc1nc(SCCC2CCCCC2)nc2c1ncn2[C@@H]1O[C@H](COP(=O)(O)CP(=O)(O)O)[C@@H](O)[C@H]1O landed at inactive

* * *

Study Target: 5'-nucleotidase (Homo sapiens)
Sequence (P21589 whole entry): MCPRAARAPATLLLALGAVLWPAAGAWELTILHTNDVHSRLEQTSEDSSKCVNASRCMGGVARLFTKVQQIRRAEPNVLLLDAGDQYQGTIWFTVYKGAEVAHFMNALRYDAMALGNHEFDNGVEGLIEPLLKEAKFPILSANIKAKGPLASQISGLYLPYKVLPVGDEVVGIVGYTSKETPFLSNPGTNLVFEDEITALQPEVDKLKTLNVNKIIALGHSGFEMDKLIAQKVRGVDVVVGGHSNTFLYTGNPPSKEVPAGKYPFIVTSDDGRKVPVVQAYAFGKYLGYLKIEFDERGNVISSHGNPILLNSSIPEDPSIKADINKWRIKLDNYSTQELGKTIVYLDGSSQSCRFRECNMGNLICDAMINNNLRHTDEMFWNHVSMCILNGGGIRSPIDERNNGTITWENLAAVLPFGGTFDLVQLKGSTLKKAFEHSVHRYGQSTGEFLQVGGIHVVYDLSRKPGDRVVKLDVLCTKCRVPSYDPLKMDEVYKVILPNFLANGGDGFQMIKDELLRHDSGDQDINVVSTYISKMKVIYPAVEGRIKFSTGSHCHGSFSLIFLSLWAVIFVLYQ
Protocol Text: Inhibition of purified recombinant soluble human CD73 expressed in Sf9 cells [3H]AMP as substrate incubated for 25 mins by scintillation counting method
Measured Parameter: Ki (nM)

Check out these entries, answers already filled in.
Nc1nc(I)nc2c1ncn2[C@@H]1O[C@H](COP(=O)(O)CP(=O)(O)O)[C@@H](O)[C@H]1O: 3.59
Nc1nc(Cl)c2ncn([C@@H]3O[C@H](COP(=O)(O)CP(=O)(O)O)[C@@H](O)[C@H]3O)c2n1: 23.6

A. NNc1nc(N)c2ncn([C@@H]3O[C@H](COP(=O)(O)CP(=O)(O)O)[C@@H](O)[C@H]3O)c2n1
B. Nc1nc(Cl)nc2c1ncn2[C@@H]1O[C@H](COP(=O)(O)CP(=O)(O)O)[C@@H](O)[C@H]1O
C. Nc1nc(SCCC2CCCCC2)nc2c1ncn2[C@@H]1O[C@H](COP(=O)(O)CP(=O)(O)O)[C@@H](O)[C@H]1O
D. Nc1nc(N2CCNCC2)nc2c1ncn2[C@@H]1O[C@H](COP(=O)(O)CP(=O)(O)O)[C@@H](O)[C@H]1O
# input // ranking: key=Ki, reverse=True Put the labels in the requested order and write them down.
# output D, C, A, B

1. C=CCSc1nc(N)c2ncn([C@@H]3O[C@H](COP(=O)(O)CP(=O)(O)O)[C@@H](O)[C@H]3O)c2n1
2. Nc1nc(N)c2ncn([C@@H]3O[C@H](COP(=O)(O)CP(=O)(O)O)[C@@H](O)[C@H]3O)c2n1
# input Kindly compare 1 with 2 and tell me which has the lower Ki figure. Give the label of your selection.
# output 2
(2: 38.8 nM, 1: 61.9 nM)

* * *

Protocol Text: Metabolic stability in human blood plasma assessed as compound degradation at 200 uM incubated for 5 hrs at 37 degC by LC-MS analysis
Format: ADME, cell-free
Assay Context: read-out: Drug degradation
Measured Parameter: metabolised at 5 h, 200 µM

Nc1nc(I)nc2c1ncn2[C@@H]1O[C@H](COP(=O)(O)CP(=O)(O)O)[C@@H](O)[C@H]1O: < 25%

--- query ---
get_value(item= Nc1ncnc2c1ncn2[C@@H]1O[C@H](COP(=O)(O)CP(=O)(O)O)[C@@H](O)[C@H]1O , readout=metabolised at 5 h, 200 µM) returns ≤ 50%

* * *

Study Target: Ectonucleotide pyrophosphatase/phosphodiesterase family member 1 (Homo sapiens)
Protocol Text: Inhibition of human recombinant NPP1 at 10 uM using p-nitrophenyl thymidine monophosphate substrate incubated for 30 mins by colorimetry
The source made the active and inactive calls. The calls are words filed in the database; no cut-off is given here.
Measured Parameter: inhibition

Nc1nc(SCCC2CCCCC2)nc2c1ncn2[C@@H]1O[C@H](COP(=O)(O)CP(=O)(O)O)[C@@H](O)[C@H]1O: inactive
Nc1nc(Cl)c2ncn([C@@H]3O[C@H](COP(=O)(O)CP(=O)(O)O)[C@@H](O)[C@H]3O)c2n1: inactive
Nc1nc(I)nc2c1ncn2[C@@H]1O[C@H](COP(=O)(O)CP(=O)(O)O)[C@@H](O)[C@H]1O: inactive
Nc1nc(Cl)nc2c1ncn2[C@@H]1O[C@H](COP(=O)(O)CP(=O)(O)O)[C@@H](O)[C@H]1O: inactive

* * *

Study Target: UniProt P21588
Protocol Text: Inhibition of purified recombinant soluble rat CD73 expressed in Sf9 cells [3H]AMP as substrate incubated for 25 mins by scintillation counting method
Measured Parameter: Ki (nM)

Consider the reported Ki for these compounds:
Nc1ncnc2c1ncn2[C@@H]1O[C@H](COP(=O)(O)CP(=O)(O)O)[C@@H](O)[C@H]1O: 197
Nc1nc2c(ncn2[C@@H]2O[C@H](COP(=O)(O)CP(=O)(O)O)[C@@H](O)[C@H]2O)c(=O)[nH]1: 1110
Nc1nc(N)c2ncn([C@@H]3O[C@H](COP(=O)(O)CP(=O)(O)O)[C@@H](O)[C@H]3O)c2n1: 90.6

I. NNc1nc(N)c2ncn([C@@H]3O[C@H](COP(=O)(O)CP(=O)(O)O)[C@@H](O)[C@H]3O)c2n1
II. C=CCSc1nc(N)c2ncn([C@@H]3O[C@H](COP(=O)(O)CP(=O)(O)O)[C@@H](O)[C@H]3O)c2n1
III. Nc1nc(I)nc2c1ncn2[C@@H]1O[C@H](COP(=O)(O)CP(=O)(O)O)[C@@H](O)[C@H]1O
# input In this exercise, place the 3 compounds in ascending sequence of their recorded Ki. Put the labels in the requested order and list them out.
# output III, II, I
(III: 15.1 nM, II: 65.7 nM, I: 116 nM)
